- System: differentiated conditionally immortalized PTECs (ciPTECs, OAT-1)
- method.summary: ciPTEC toxicity assay (PrestoBlue)
- Assay type: cell-based, human
Positions of bridges follow the written chain, without caps; N, C: chain ends. Non-standard residues stand in square brackets, D forms with d. Residues, ends and D or L forms follow the SMILES beside them. *: point of attachment. S(3-Methylbutyl) = CC(C)CCS*; Dab = NCC[C@H](N)C(=O)O
ciPTEC Toxicity Index (relative to polymyxin B) values by entry
measurement.type: ciPTEC Toxicity Index (relative to polymyxin B)

compound	experimental.result
CC(C)CCSSC[C@H](NC(=O)CN)C(=O)N[C@H](C(=O)N[C@@H](CCN)C(=O)N[C@H]1CCNC(=O)[C@H]([C@@H](C)O)NC(=O)[C@H](CCN)NC(=O)[C@H](CCN)NC(=O)[C@H](CC(C)C)NC(=O)[C@@H](Cc2ccccc2)NC(=O)[C@H](CCN)NC1=O)[C@@H](C)O [Compound 22a] (H-GC(S(3-Methylbutyl))T[Dab][Dab][Dab][dF]L[Dab][Dab]T; lactam 5-C)	3.8
CC(C)CCSSC[C@@H](N)C(=O)N[C@H](C(=O)N[C@@H](CCN)C(=O)N[C@H]1CCNC(=O)[C@H]([C@@H](C)O)NC(=O)[C@H](CCN)NC(=O)[C@H](CCN)NC(=O)[C@H](CC(C)C)NC(=O)[C@@H](Cc2ccccc2)NC(=O)[C@H](CCN)NC1=O)[C@@H](C)O [Compound 18b] (H-[dC](S(3-Methylbutyl))T[Dab][Dab][Dab][dF]L[Dab][Dab]T; lactam 4-C)	4.7

---

- Test system: differentiated conditionally immortalized PTECs (ciPTECs, OAT-1)
- method.summary: ciPTEC toxicity assay (PrestoBlue)
- Type: cell-based, human
Positions of bridges follow the written chain, without caps; N, C: chain ends. Non-standard residues stand in square brackets, D forms with d. Residues, ends and D or L forms follow the SMILES beside them. *: point of attachment. X5 = c1ccc(-c2ccc(CS*)cc2)cc1; Dab = NCC[C@H](N)C(=O)O; X1 = CC(C)CCCCS*
measurement.type: TC50, Day 2

compound	target.of.assay	experimental.result
CC(C)C[C@@H]1NC(=O)[C@@H](Cc2ccccc2)NC(=O)[C@H](CCN)NC(=O)[C@@H](NC(=O)[C@H](CCN)NC(=O)[C@@H](NC(=O)[C@H](N)CSSCc2ccc(-c3ccccc3)cc2)[C@@H](C)O)CCNC(=O)[C@H]([C@@H](C)O)NC(=O)[C@H](CCN)NC(=O)[C@H](CCN)NC1=O [Compound 36] (H-[dC](X5)T[Dab][Dab][Dab][dF]L[Dab][Dab]T; lactam 4-C)	differentiated conditionally immortalized PTECs (ciPTECs, OAT-1)	68 µM
CC(C)CCCCSSC[C@@H](NC(=O)CN)C(=O)N[C@H](C(=O)N[C@@H](CCN)C(=O)N[C@H]1CCNC(=O)[C@H]([C@@H](C)O)NC(=O)[C@H](CCN)NC(=O)[C@H](CCN)NC(=O)[C@H](CC(C)C)NC(=O)[C@@H](Cc2ccccc2)NC(=O)[C@H](CCN)NC1=O)[C@@H](C)O [Compound 24b] (H-G[dC](X1)T[Dab][Dab][Dab][dF]L[Dab][Dab]T; lactam 5-C)	differentiated conditionally immortalized PTECs (ciPTECs, OAT-1)	63 µM

---

- System: A. baumannii (ATCC 19606)
- Format: cell-based
- assay.context: ATCC 19606
Positions of bridges follow the written chain, without caps; N, C: chain ends. Non-standard residues stand in square brackets, D forms with d. Residues, ends and D or L forms follow the SMILES beside them. *: point of attachment. Phenylthio(4-OPh) = c1ccc(Oc2ccc(S*)cc2)cc1; S(3-Cl-benzyl) = Clc1cccc(CS*)c1; X6 = c1ccc(-c2ccc(S*)cc2)cc1; Dab = NCC[C@H](N)C(=O)O
MIC A. baumannii (ATCC 19606) values by entry

compound	target.of.assay	MIC A. baumannii (ATCC 19606) [µg/mL]
CC(C)C[C@@H]1NC(=O)[C@@H](Cc2ccccc2)NC(=O)[C@H](CCN)NC(=O)[C@@H](NC(=O)[C@H](CCN)NC(=O)[C@@H](NC(=O)[C@H](N)CSSc2ccc(Oc3ccccc3)cc2)[C@@H](C)O)CCNC(=O)[C@H]([C@@H](C)O)NC(=O)[C@H](CCN)NC(=O)[C@H](CCN)NC1=O [Compound 30b] (H-[dC](Phenylthio(4-OPh))T[Dab][Dab][Dab][dF]L[Dab][Dab]T; lactam 4-C)	A. baumannii (ATCC 19606)	4
CC(C)C[C@@H]1NC(=O)[C@@H](Cc2ccccc2)NC(=O)[C@H](CCN)NC(=O)[C@@H](NC(=O)[C@H](CCN)NC(=O)[C@@H](NC(=O)[C@H](N)CSSCc2cccc(Cl)c2)[C@@H](C)O)CCNC(=O)[C@H]([C@@H](C)O)NC(=O)[C@H](CCN)NC(=O)[C@H](CCN)NC1=O [Compound 38] (H-[dC](S(3-Cl-benzyl))T[Dab][Dab][Dab][dF]L[Dab][Dab]T; lactam 4-C)	A. baumannii (ATCC 19606)	1
CC(C)C[C@@H]1NC(=O)[C@@H](Cc2ccccc2)NC(=O)[C@H](CCN)NC(=O)[C@@H](NC(=O)[C@H](CCN)NC(=O)[C@@H](NC(=O)[C@@H](N)CSSc2ccc(-c3ccccc3)cc2)[C@@H](C)O)CCNC(=O)[C@H]([C@@H](C)O)NC(=O)[C@H](CCN)NC(=O)[C@H](CCN)NC1=O [Compound 29a] (H-C(X6)T[Dab][Dab][Dab][dF]L[Dab][Dab]T; lactam 4-C)	A. baumannii (ATCC 19606)	32

---

- System: A. baumannii (ATCC 19606)
- Format: cell-based
- assay.context: ATCC 19606
- Experimental: Minimum inhibitory concentrations (MICs) on relevant Gram-negative bacteria were determined by broth microdilution, in accordance with CLSI guidelines. Indicated bacteria were taken from glycerol stocks and incubated overnight on blood agar at 37 °C. Well-isolated colonies were taken, suspended in TSB (5 mL), and grown to an OD600 of 0.5. […] MIC was read out as the lowest concentration that inhibited visual bacterial growth. […]
Positions of bridges follow the written chain, without caps; N, C: chain ends. Non-standard residues stand in square brackets, D forms with d. Residues, ends and D or L forms follow the SMILES beside them. *: point of attachment. S(3-Methylbutyl) = CC(C)CCS*; Dab = NCC[C@H](N)C(=O)O; X4 = CCCCCCS*
measurement.type: MIC A. baumannii (ATCC 19606)

compound	experimental.result
CC(C)CCSSC[C@H](N)C(=O)N[C@H](C(=O)N[C@@H](CCN)C(=O)N[C@H]1CCNC(=O)[C@H]([C@@H](C)O)NC(=O)[C@H](CCN)NC(=O)[C@H](CCN)NC(=O)[C@H](CC(C)C)NC(=O)[C@@H](Cc2ccccc2)NC(=O)[C@H](CCN)NC1=O)[C@@H](C)O [Compound 18a] (H-C(S(3-Methylbutyl))T[Dab][Dab][Dab][dF]L[Dab][Dab]T; lactam 4-C)	>32 µg/mL
CC(C)C[C@@H]1NC(=O)[C@@H](Cc2ccccc2)NC(=O)[C@H](CCN)NC(=O)[C@@H](NC(=O)[C@H](CCN)NC(=O)[C@@H](N)[C@@H](C)O)CCNC(=O)[C@H]([C@@H](C)O)NC(=O)[C@H](CCN)NC(=O)[C@H](CCN)NC1=O [PMBN, polymyxin B nonapeptide, reference compound] (H-T[Dab][Dab][Dab][dF]L[Dab][Dab]T; lactam 3-C)	>32 µg/mL
CCCCCCSSC[C@H](N)C(=O)N[C@H](C(=O)N[C@@H](CCN)C(=O)N[C@H]1CCNC(=O)[C@H]([C@@H](C)O)NC(=O)[C@H](CCN)NC(=O)[C@H](CCN)NC(=O)[C@H](CC(C)C)NC(=O)[C@@H](Cc2ccccc2)NC(=O)[C@H](CCN)NC1=O)[C@@H](C)O [Compound 17a] (H-C(X4)T[Dab][Dab][Dab][dF]L[Dab][Dab]T; lactam 4-C)	>32 µg/mL
